- target-or-test-system: Orco (Apocrypta bakeri, UniProt B0FAQ4)
- Sequence (B0FAQ4 2-474): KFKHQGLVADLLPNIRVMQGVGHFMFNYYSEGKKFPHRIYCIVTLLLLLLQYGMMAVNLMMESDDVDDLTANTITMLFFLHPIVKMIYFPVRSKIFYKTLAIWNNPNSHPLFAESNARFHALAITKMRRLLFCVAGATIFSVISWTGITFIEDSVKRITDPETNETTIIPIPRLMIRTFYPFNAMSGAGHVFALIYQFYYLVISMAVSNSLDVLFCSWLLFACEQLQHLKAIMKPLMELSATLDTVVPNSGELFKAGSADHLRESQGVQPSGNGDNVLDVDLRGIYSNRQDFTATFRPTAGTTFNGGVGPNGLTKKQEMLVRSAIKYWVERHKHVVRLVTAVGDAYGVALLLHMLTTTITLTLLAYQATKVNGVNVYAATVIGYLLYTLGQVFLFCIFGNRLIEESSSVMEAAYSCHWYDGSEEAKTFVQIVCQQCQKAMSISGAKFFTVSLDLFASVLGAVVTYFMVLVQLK
readout: Kd (µM)

- molecule: "CCc1ccc(NC(=O)CSc2nnc(-c3cccnc3)n2CC)cc1 [VUAA1]"
  value-measured: 13

====

- target-or-test-system: Orco (Apocrypta bakeri)
- measurement-protocol: Whole-cell voltage-clamp VUAA1 dose-response, HEK293 cell expressing Orco
pEC50: −log10 of the molar value.

- structure-smiles: "CCc1ccc(NC(=O)CSc2nnc(-c3cccnc3)n2CC)cc1"
  pEC50: 4.19

====

- target-or-test-system: Orco-Fab complex (Apocrypta bakeri)
- measurement-protocol: Isothermal titration calorimetry
pKd: −log10 of the molar value.

- structure-smiles: "CCc1ccc(NC(=O)CSc2nnc(-c3cccnc3)n2CC)cc1"
  target-or-test-system: "Orco-Fab complex (Apocrypta bakeri)"
  pKd: 4.74
